Assay read-out pIC50 on UniProt:P17948; records merged from the literature.
pIC50: −log10 of the molar value.

Below are worked cases with known answers.
O=C(c1c(F)ccc(OC(F)F)c1F)c1c[nH]c2ncc(Br)cc12	≥ 5.00
CC(=O)Nc1cccc(-c2cnc3[nH]cc(C(=O)c4cccc(OC(F)(F)F)c4)c3c2)c1	≥ 5.00
COc1cc(Nc2ncnc(Nc3ccc4c(c3)OCO4)n2)cc(OC)c1OC	> 6.00

Proceeding to the next molecule to report its pIC50.
What does the data say about its pIC50? Entry: "COC(=O)CNCCNC(=O)c1c[nH]c(-c2cc(Oc3ccc(NC(=O)Nc4cc(C)ccc4F)cc3)ccn2)c1"
8.15

* * *

Literature-derived IC50 for Vascular endothelial growth factor receptor 1 (Homo sapiens, UniProt P17948) follows.

COc1cnc2[nH]cc(C(=O)c3c(Cl)ccc(OCC(F)(F)F)c3Cl)c2c1	≤ 10 µM

Checklist item: IC50 tested on Vascular endothelial growth factor receptor 1 (Homo sapiens, UniProt P17948), entry COC(=O)C1CCCN1CCCNC(=O)c1c[nH]c(-c2cc(Oc3ccc(NC(=O)Nc4cc(C)ccc4F)c(F)c3)ccn2)c1 (stereo not drawn) , value?
0.008 µM

Recorded IC50 for "Cc1ccc(F)c(NC(=O)Nc2ccc(Oc3ccnc4cc(C(=O)NCCc5nn[nH]n5)sc34)cc2)c1" with Vascular endothelial growth factor receptor 1 (Homo sapiens, UniProt P17948), please?
0.01 µM

Record lookup: for Vascular endothelial growth factor receptor 1 (Homo sapiens, UniProt P17948), what IC50 belongs to "COCCOc1cc(Nc2ncnc(Nc3ccc(C)c(O)c3)n2)ccc1OC" ?
< 1.01 µM

State its IC50 on Vascular endothelial growth factor receptor 1 (Homo sapiens, UniProt P17948): "COc1cc(Nc2ncnc(-n3ccc4cc(Cl)ccc43)n2)cc(OC)c1OC"
0.971 to 5.83 µM

* * *

// cross-study collection: IC50 for Vascular endothelial growth factor receptor 1 (Homo sapiens)

Solved entries:
COc1ccc(Nc2ncnc(-n3c(N)nc4ccccc43)n2)cc1OC	> 12.4 µM
N#Cc1cnc2[nH]cc(C(=O)c3c(F)ccc(NS(=O)(=O)c4ccc(C(F)(F)F)cc4)c3F)c2c1	≤ 10 µM

What reported IC50 corresponds to "CCN1CCC(Oc2ccc3c(c2)/C(=C(\c2cccc(OC)c2)c2nc4ccccc4[nH]2)C(=O)N3)CC1" on Vascular endothelial growth factor receptor 1 (Homo sapiens)?
0.05 to 0.5 µM

Under Vascular endothelial growth factor receptor 1 (Homo sapiens): IC50 value of "COC(=O)COc1ccc(F)c(Cc2c[nH]c3ncc(-c4cccnc4)cc23)c1F" ?
≤ 10 µM

Give IC50 (Vascular endothelial growth factor receptor 1 (Homo sapiens)) of the following molecule: "COc1cc(Nc2ncnc(Nc3cc(-c4ccco4)n[nH]3)n2)cc(OC)c1OC"
< 0.977 µM

# returns recorded IC50 (system: Vascular endothelial growth factor receptor 1 (Homo sapiens)) for "Cn1cc(-c2cnc3[nH]cc(C(=O)c4cc(NS(=O)(=O)C5CCCCC5)ccc4F)c3c2)cn1"
≤ 10 µM

So what IC50 did "COc1ccc2c(c1)c(CCNC(C)=O)cn2-c1ncnc(Nc2cc(OC)c(OC)c(OC)c2)n1" get with Vascular endothelial growth factor receptor 1 (Homo sapiens)?
> 9.14 µM

# returns recorded IC50 (system: Vascular endothelial growth factor receptor 1 (Homo sapiens)) for "COc1cc(Nc2ncnc(-c3cccnc3NC(C)C)n2)cc(OC)c1OC"
> 11.4 µM

# query: IC50 | item "Cc1ccc(NC(=O)c2ccc(C)c(C(F)(F)F)c2)cc1C#Cc1nn([C@H]2CC[C@H](O)CC2)c2ncnc(N)c12" | system: Vascular endothelial growth factor receptor 1 (Homo sapiens)
0.015 µM

GET /values?readout=IC50&system=Vascular endothelial growth factor receptor 1 (Homo sapiens)&item= "Clc1ccc(CNc2ccc(Cc3c[nH]c4ncncc34)cn2)cc1"
≤ 10 µM
